molecular target: UniProt P00742
Sequence (P00742 235-488 limits assumed): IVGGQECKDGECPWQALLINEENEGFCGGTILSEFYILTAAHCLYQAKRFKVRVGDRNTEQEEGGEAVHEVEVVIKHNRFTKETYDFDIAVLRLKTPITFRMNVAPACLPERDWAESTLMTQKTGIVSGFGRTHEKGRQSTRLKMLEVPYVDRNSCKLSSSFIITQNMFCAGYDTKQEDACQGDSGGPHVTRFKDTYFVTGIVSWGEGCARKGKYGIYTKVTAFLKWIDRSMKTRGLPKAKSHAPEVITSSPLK
Sequence (P00742 41-179 partner limits assumed): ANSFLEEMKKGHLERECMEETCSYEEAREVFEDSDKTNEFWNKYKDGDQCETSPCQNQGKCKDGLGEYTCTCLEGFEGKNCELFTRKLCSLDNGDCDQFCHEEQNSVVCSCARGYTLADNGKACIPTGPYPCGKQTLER
Counter-ions that a name gives are not always drawn.
Each entry below lists one item and its recorded IC50 value.
measured_attribute: IC50

[
  {
    "molecule": "CN1CCc2nc(C(=O)N[C@@H]3CCC[C@H]3NC(=O)c3cc4cc(Cl)ccc4[nH]3)sc2C1 (racemic) [Example 3, hydrochloride]",
    "measured_attribute": "IC50",
    "observed_result": "86 nM"
  },
  {
    "molecule": "CN1Cc2nc(C(=O)N[C@@H]3CCCC[C@@H]3NC(=O)c3cc4cc(Cl)ccc4[nH]3)sc2C1 (racemic) [Example 41, hydrochloride]",
    "measured_attribute": "IC50",
    "observed_result": "36 nM"
  },
  {
    "molecule": "CN1CCc2nc(C(=O)N[C@@H]3CCCC[C@@H]3NC(=O)c3cc4cc(Br)ccc4[nH]3)sc2C1 (racemic) [Example 15, hydrochloride]",
    "measured_attribute": "IC50",
    "observed_result": "92 nM"
  },
  {
    "molecule": "CN1CCc2nc(C(=O)N[C@@H]3CCCC[C@@H]3NC(=O)c3ccc4cc(Cl)ccc4c3)sc2C1 (racemic) [Example 10, hydrochloride]",
    "measured_attribute": "IC50",
    "observed_result": "83 nM"
  }
]
